- System: SK-MEL-2 melanoma
- method.summary: NCI tumour cell line growth inhibition, 48 h; in the data active = GI50 below about 0.43 µM; inactive = the rest
The reply should name one outcome from TRUE (active), FALSE (inactive)

Consider the following illustrative entries.
Cc1cc(F)c(C(=O)Nc2cccc(-c3nncn3C(C)C)n2)cc1-n1cnc(C2CC2)c1    FALSE
CCn1cnc(C[C@H](NC(=O)[C@H](CCCCNC(=O)Nc2cc(C(F)(F)F)cc(C(F)(F)F)c2)NC(=O)Nc2cc(C(F)(F)F)cc(C(F)(F)F)c2)C(=O)OC)c1    FALSE
O=c1cc(-c2ccc(Cl)cc2)[nH]c2ccccc12    FALSE
CN(C)c1ccc(/C=C/C(=O)c2ccc(Nc3nc(Nc4ccc(F)cc4)nc(Nc4ccc(F)cc4)n3)cc2)cc1    FALSE
Cc1c2cnccc2c(C)c2c1c1cc(O)ccc1n2C(C)C    FALSE

Ask | // outcome(item) with item = `C1=N[C@]23C(=N[C@H](N=C2NCc2ccco2)[C@]24N=CNC2=N[C@H]3N=C4NCc2ccco2)N1`
Reply | FALSE

Ask | // outcome(item) with item = Cc1nc2ccccn2c1NC(=O)NN1C(=O)CSC1c1ccc(Cl)cc1 (centres undefined)
Reply | FALSE

Ask | // outcome(item) with item = C[C@H]1CCC/C=C/C2CC(OC(=O)CN(C)C)CC2C(OC(=O)CN(C)C)/C=C/C(=O)O1 (some centres undefined)
Reply | TRUE

Ask | // outcome(item) with item = `CC/C=C\C[C@H]1C/C=C2/C(=O)C=C[C@H]2C/C=C\CCCC(=O)O1`
Reply | FALSE
